- ASSAY: molar heat capacity at constant pressure
- CONDITION_SET: 365 K; 101.33 kPa; Liquid; DSC
MEASURED_ENDPOINT: molar heat capacity at constant pressure (J/K/mol)

                                   compound  test_result
0  CCCCCCCCCCCCCC(=O)OCC(COC(=O)CCCCCCCCCCCCC)OC(=O)CCCCCCCCCCCCC [1,2,3-propanetriyl tri(tetradecanoate)]         1580
1  CCCCCCCC(=O)OCC(COC(=O)CCCCCCC)OC(=O)CCCCCCC [1,2,3-propanetriol trioctanoate]        984.1
2  CCCCCCCCCCCC(=O)OCC(COC(=O)CCCCCCCCCCC)OC(=O)CCCCCCCCCCC [1,2,3-propanetriyl tridodecanoate]         1384
3  CCCCCCCCCC(=O)OCC(COC(=O)CCCCCCCCC)OC(=O)CCCCCCCCC [1,2,3-propanetriyl tridecanoate]         1182

* * *

- ASSAY: molar heat capacity at constant pressure
- CONDITION_SET: 350 K; 101.33 kPa; Liquid; DSC
MEASURED_ENDPOINT: molar heat capacity at constant pressure (J/K/mol)

                                   compound  measurement_unit  test_result
0  CCCCCCCC(=O)OCC(COC(=O)CCCCCCC)OC(=O)CCCCCCC [1,2,3-propanetriol trioctanoate]           J/K/mol          964
1  CCCCCCCCCCCC(=O)OCC(COC(=O)CCCCCCCCCCC)OC(=O)CCCCCCCCCCC [1,2,3-propanetriyl tridodecanoate]           J/K/mol         1350
2  CCCCCCCCCCCCCC(=O)OCC(COC(=O)CCCCCCCCCCCCC)OC(=O)CCCCCCCCCCCCC [1,2,3-propanetriyl tri(tetradecanoate)]           J/K/mol         1547
3  CCCCCCCCCC(=O)OCC(COC(=O)CCCCCCCCC)OC(=O)CCCCCCCCC [1,2,3-propanetriyl tridecanoate]           J/K/mol         1157

* * *

- CONDITION_SET: 385 K; 101.33 kPa; Liquid; Laser flash apparatus
MEASURED_ENDPOINT: thermal conductivity (W/m/K)

>>> df
                                   compound  measurement_unit  test_result
0  CCCCCCCCCC(=O)OCC(COC(=O)CCCCCCCCC)OC(=O)CCCCCCCCC [1,2,3-propanetriyl tridecanoate]             W/m/K        0.148
1  CCCCCCCCCCCC(=O)OCC(COC(=O)CCCCCCCCCCC)OC(=O)CCCCCCCCCCC [1,2,3-propanetriyl tridodecanoate]             W/m/K        0.157
2  CCCCCCCCCCCCCC(=O)OCC(COC(=O)CCCCCCCCCCCCC)OC(=O)CCCCCCCCCCCCC [1,2,3-propanetriyl tri(tetradecanoate)]             W/m/K        0.168
3  CCCCCCCC(=O)OCC(COC(=O)CCCCCCC)OC(=O)CCCCCCC [1,2,3-propanetriol trioctanoate]             W/m/K        0.146

* * *

- ASSAY: molar heat capacity at constant pressure
- CONDITION_SET: 405 K; 101.33 kPa; Liquid; DSC
MEASURED_ENDPOINT: molar heat capacity at constant pressure (J/K/mol)

In [3]: df
Out[3]:
                                   molecule                         measured_endpoint  test_result
0  CCCCCCCCCCCC(=O)OCC(COC(=O)CCCCCCCCCCC)OC(=O)CCCCCCCCCCC [1,2,3-propanetriyl tridodecanoate]  molar heat capacity at constant pressure         1458
1  CCCCCCCCCCCCCC(=O)OCC(COC(=O)CCCCCCCCCCCCC)OC(=O)CCCCCCCCCCCCC [1,2,3-propanetriyl tri(tetradecanoate)]  molar heat capacity at constant pressure         1678
2  CCCCCCCC(=O)OCC(COC(=O)CCCCCCC)OC(=O)CCCCCCC [1,2,3-propanetriol trioctanoate]  molar heat capacity at constant pressure         1037
3  CCCCCCCCCC(=O)OCC(COC(=O)CCCCCCCCC)OC(=O)CCCCCCCCC [1,2,3-propanetriyl tridecanoate]  molar heat capacity at constant pressure         1235

* * *

- ASSAY: molar heat capacity at constant pressure
- CONDITION_SET: 385 K; 101.33 kPa; Liquid; DSC
MEASURED_ENDPOINT: molar heat capacity at constant pressure (J/K/mol)

                                   molecule  measurement_unit  test_result
0  CCCCCCCCCC(=O)OCC(COC(=O)CCCCCCCCC)OC(=O)CCCCCCCCC [1,2,3-propanetriyl tridecanoate]           J/K/mol         1209

a. CCCCCCCC(=O)OCC(COC(=O)CCCCCCC)OC(=O)CCCCCCC [1,2,3-propanetriol trioctanoate]
b. CCCCCCCCCCCCCC(=O)OCC(COC(=O)CCCCCCCCCCCCC)OC(=O)CCCCCCCCCCCCC [1,2,3-propanetriyl tri(tetradecanoate)]
Parameter metric = molar heat capacity at constant pressure. Return the lower-valued option from a and b . # respond with the chosen item's label
a
(a: 1010 J/K/mol, b: 1632 J/K/mol)

* * *

- CONDITION_SET: 350 K; 101.33 kPa; Liquid; Laser flash apparatus
MEASURED_ENDPOINT: thermal conductivity (W/m/K)

                                   compound  test_result
0  CCCCCCCCCC(=O)OCC(COC(=O)CCCCCCCCC)OC(=O)CCCCCCCCC [1,2,3-propanetriyl tridecanoate]        0.152
1  CCCCCCCCCCCCCC(=O)OCC(COC(=O)CCCCCCCCCCCCC)OC(=O)CCCCCCCCCCCCC [1,2,3-propanetriyl tri(tetradecanoate)]        0.171
2  CCCCCCCC(=O)OCC(COC(=O)CCCCCCC)OC(=O)CCCCCCC [1,2,3-propanetriol trioctanoate]         0.15
3  CCCCCCCCCCCC(=O)OCC(COC(=O)CCCCCCCCCCC)OC(=O)CCCCCCCCCCC [1,2,3-propanetriyl tridodecanoate]        0.161

* * *

- CONDITION_SET: 395 K; 101.33 kPa; Liquid; Laser flash apparatus
MEASURED_ENDPOINT: thermal conductivity (W/m/K)

>>> df
                                   compound  measurement_unit  test_result
0  CCCCCCCC(=O)OCC(COC(=O)CCCCCCC)OC(=O)CCCCCCC [1,2,3-propanetriol trioctanoate]             W/m/K        0.145
1  CCCCCCCCCCCCCC(=O)OCC(COC(=O)CCCCCCCCCCCCC)OC(=O)CCCCCCCCCCCCC [1,2,3-propanetriyl tri(tetradecanoate)]             W/m/K        0.167
2  CCCCCCCCCC(=O)OCC(COC(=O)CCCCCCCCC)OC(=O)CCCCCCCCC [1,2,3-propanetriyl tridecanoate]             W/m/K        0.147
3  CCCCCCCCCCCC(=O)OCC(COC(=O)CCCCCCCCCCC)OC(=O)CCCCCCCCCCC [1,2,3-propanetriyl tridodecanoate]             W/m/K        0.155

* * *

- CONDITION_SET: Liquid; Resistive pulse heating
MEASURED_ENDPOINT: Critical temperature (K)

In [3]: df
Out[3]:
                                   compound     measured_endpoint  measurement_unit  test_result
0  CCCCCCCC(=O)OCC(COC(=O)CCCCCCC)OC(=O)CCCCCCC [1,2,3-propanetriol trioctanoate]  Critical temperature                 K          836
1  CCCCCCCCCC(=O)OCC(COC(=O)CCCCCCCCC)OC(=O)CCCCCCCCC [1,2,3-propanetriyl tridecanoate]  Critical temperature                 K          864
2  CCCCCCCCCCCC(=O)OCC(COC(=O)CCCCCCCCCCC)OC(=O)CCCCCCCCCCC [1,2,3-propanetriyl tridodecanoate]  Critical temperature                 K          899
3  CCCCCCCCCCCCCC(=O)OCC(COC(=O)CCCCCCCCCCCCC)OC(=O)CCCCCCCCCCCCC [1,2,3-propanetriyl tri(tetradecanoate)]  Critical temperature                 K          925

* * *

- CONDITION_SET: Liquid; Resistive pulse heating
MEASURED_ENDPOINT: Critical pressure (kPa)

In [3]: df
Out[3]:
                                   compound  test_result
0  CCCCCCCCCCCC(=O)OCC(COC(=O)CCCCCCCCCCC)OC(=O)CCCCCCCCCCC [1,2,3-propanetriyl tridodecanoate]          650
1  CCCCCCCC(=O)OCC(COC(=O)CCCCCCC)OC(=O)CCCCCCC [1,2,3-propanetriol trioctanoate]          830
2  CCCCCCCCCC(=O)OCC(COC(=O)CCCCCCCCC)OC(=O)CCCCCCCCC [1,2,3-propanetriyl tridecanoate]          750
3  CCCCCCCCCCCCCC(=O)OCC(COC(=O)CCCCCCCCCCCCC)OC(=O)CCCCCCCCCCCCC [1,2,3-propanetriyl tri(tetradecanoate)]          610

Hello, the source for this data is the NIST ThermoML archive (doi:10.1016/j.jct.2017.07.006), in case you need it.
